Would you mind telling me the reported TGI of each entry?
# Tested on: NCI-H23 lung
# assay: NCI tumour cell line growth inhibition, 48 h
Where a SMILES comes first, the peptide text is derived from it. The star is where a group is joined. Boc = CC(C)(C)OC(=O)*; OBn = c1ccc(CO*)cc1; Bn = c1ccc(C*)cc1

Item under review: O=C1CCCn2c3ccccc3c3ccnc1c32 . Reported TGI?
> 100 µM

Item under review: CC(=O)NC1=NC(=O)/C(=C/c2ccc(Cl)cc2Cl)N1C . Reported TGI?
> 100 µM

Item under review: Cc1cc(C)cc(NC(=O)CCC(=O)C2CCC/C2=N\NC(=O)C(=O)NN)c1 (stereo not given) . Reported TGI?
> 100 µM

Item under review: CO/C=C(/C(=O)OC)c1ccccc1[C@H]1C[C@@H]1c1ccc(OC)cc1 . Reported TGI?
> 100 µM

Item under review: CC(C)(C)NC(=O)C12C3C4C1C1C2C3C41I (stereo not given) . Reported TGI?
> 100 µM

Item under review: CSc1nc(NC2CC2)c2c(n1)Sc1nc3ccccc3n1N=C2 . Reported TGI?
> 100 µM

Item under review: COC(=O)C(=O)C(C(=O)C(=O)Nc1ccc(Cl)cc1Cl)c1nc2ccc(Cl)cc2[nH]c1=O (stereo not given) . Reported TGI?
> 100 µM

Item under review: Cc1cccc2c1NC(c1c(C)[nH]c3ccccc13)C2 (stereo not given) . Reported TGI?
> 100 µM

Item under review: CC(=O)OCC1OC(n2c(-c3ccc(N)cc3)cc(-c3ccco3)c(C#N)c2=O)C(OC(C)=O)C(OC(C)=O)C1OC(C)=O (stereo not given) . Reported TGI?
> 50 µM

Item under review: N=C(N)c1ccc(-c2ccc(-c3ccco3)o2)cc1 . Reported TGI?
26.6 µM

Item under review: O=C(/C=C/c1ccco1)c1ccc(Nc2ccnc3cc(Cl)ccc23)cc1 . Reported TGI?
> 100 µM

Item under review: O=c1c2ccccc2oc2nccnc12 . Reported TGI?
> 100 µM

Item under review: Nc1c2c(nc3ccccc13)-c1ccccc1CCC2 . Reported TGI?
37.8 µM

Item under review: O=C(CCCCCCCCC(=O)OCCCn1cc(C(=O)NC(=O)OCc2ccccc2)c(=O)[nH]c1=O)OCCCn1cc(C(=O)NC(=O)OCc2ccccc2)c(=O)[nH]c1=O . Reported TGI?
> 100 µM

Item under review: CCNc1nc2ccccc2nc1NCC . Reported TGI?
> 100 µM

Item under review: O=C1CCCc2ccc3c(c21)CC1(Cc2cc4c(cc2C1)CCCC4)C3 . Reported TGI?
49 µM

Item under review: COc1ccc(/C(C#N)=C/c2nc3c(N4CCOCC4)nc(Cl)nc3n2C)cc1OC . Reported TGI?
2.74 µM

Item under review: O=C1c2cc(Br)ccc2-c2c1c1ccccc1c(=O)n2CCCCl . Reported TGI?
40.9 µM

Item under review: COC(CO[Si](C)(C)N[Si](C)(C)OCC(OC)c1ccccc1)c1ccccc1 (stereo not given) . Reported TGI?
> 100 µM

Item under review: NC(N)=Nc1nc2cc(N)ccc2o1 . Reported TGI?
> 100 µM

Item under review: COc1ccc2c(c1)Cc1cc(N=[N+]([O-])c3ccc4c(c3)Cc3cc(OC)ccc3-4)ccc1-2 . Reported TGI?
> 100 µM

Item under review: COC(=O)c1ccc2n[se]nc2c1 . Reported TGI?
> 100 µM

Item under review: CCOc1cccc2cccnc12 . Reported TGI?
> 100 µM

Item under review: CC(C)CC(NC(=O)C(CCC(=O)OCc1ccccc1)NC(=O)OC(C)(C)C)C(=O)NC(COCc1ccccc1)C(=O)NC(Cc1ccccc1)C(=O)O (stereo not given) (Boc-E(OBn)LS(Bn)F-OH; configuration not given here) . Reported TGI?
> 100 µM

Item under review: N.N.NCCCCN.O=C([O-])CCl.O=C([O-])CCl.O=C([O-])CCl.O=C([O-])CCl.[Pt+4].[Pt+4] . Reported TGI?
> 50 µM

Item under review: NCCCCN(CCCN)C(=O)OCc1ccccc1 . Reported TGI?
> 100 µM

Item under review: NC(=O)c1ncn(C2CCC(CP(=O)(O)O)C2)c1N (stereo not given) . Reported TGI?
> 100 µM

Item under review: CCOC(=O)C(C(N)=O)c1nc2cc([N+](=O)[O-])ccc2nc1/C=C(\O)c1ccc(C)cc1 (stereo not given) . Reported TGI?
34.3 µM

Item under review: COc1ccccc1NC(=O)CC(=O)NNCC(=O)Nc1nc(-c2ccccc2)cs1 . Reported TGI?
> 100 µM

Item under review: Nc1nc(-c2ccccc2)cc(-c2ccc(F)cc2)c1-c1ccc(Cl)cc1 . Reported TGI?
> 100 µM

Item under review: Cc1cc([C@H](C#N)c2nc3ccccc3s2)nc(Cl)n1 . Reported TGI?
15 µM

Item under review: CC(C)OCC(O)COc1cc(=O)oc2ccccc12 (stereo not given) . Reported TGI?
> 100 µM

Item under review: COc1ccc(CNCCN2C(=O)c3ccc4c5c(ccc(c35)C2=O)C(=O)N(CCNCc2ccc(OC)cc2)C4=O)cc1 . Reported TGI?
0.494 µM

Item under review: O=C(c1ccc(Cl)cc1)N(C(=S)N1CCN(c2ccccc2)CC1)C1CCCCC1 . Reported TGI?
> 100 µM

Item under review: CN(CCN(C)Cc1ccc(Cl)c(Cl)c1)CCN1CCCC1 . Reported TGI?
> 100 µM

Item under review: Clc1ccc2nc3c(c(-c4ccccc4)nn3-c3ccccc3)c(-c3ccccc3)c2c1 . Reported TGI?
> 100 µM

Item under review: CC(C)n1c2c(c3ccccc3c1=O)C(=O)c1ccccc1-2 . Reported TGI?
> 100 µM

Item under review: NC(=O)NC1=NCCC(=O)N1CCc1c[nH]c2ccccc12 . Reported TGI?
43.4 µM

Item under review: C/C(=N\NC(=S)N/N=C(\C)c1ccccn1)c1ccccn1 . Reported TGI?
> 100 µM

Item under review: CSCC[C@@H](NC(=O)[C@H](CC(C)C)NC(=O)C(Cc1cnc[nH]1)NC(=O)CNC(=O)[C@@H](NC(=O)[C@H](C)NC(=O)[C@H](Cc1cn(C=O)c2ccccc12)NC(=O)[C@H](CCC(N)=O)NC(=O)[C@@H](N)CC(N)=O)C(C)C)C(N)=O (stereo not given in full) . Reported TGI?
> 100 µM

Values were extracted from PubChem BioAssay (NCI).
